Entry source: patent US9181273B2

Item-by-item account of IC50
- Study system: human NaV subtype, like NaV 1.7 (Homo sapiens, UniProt Q15858)
- Sequence (Q15858 whole entry): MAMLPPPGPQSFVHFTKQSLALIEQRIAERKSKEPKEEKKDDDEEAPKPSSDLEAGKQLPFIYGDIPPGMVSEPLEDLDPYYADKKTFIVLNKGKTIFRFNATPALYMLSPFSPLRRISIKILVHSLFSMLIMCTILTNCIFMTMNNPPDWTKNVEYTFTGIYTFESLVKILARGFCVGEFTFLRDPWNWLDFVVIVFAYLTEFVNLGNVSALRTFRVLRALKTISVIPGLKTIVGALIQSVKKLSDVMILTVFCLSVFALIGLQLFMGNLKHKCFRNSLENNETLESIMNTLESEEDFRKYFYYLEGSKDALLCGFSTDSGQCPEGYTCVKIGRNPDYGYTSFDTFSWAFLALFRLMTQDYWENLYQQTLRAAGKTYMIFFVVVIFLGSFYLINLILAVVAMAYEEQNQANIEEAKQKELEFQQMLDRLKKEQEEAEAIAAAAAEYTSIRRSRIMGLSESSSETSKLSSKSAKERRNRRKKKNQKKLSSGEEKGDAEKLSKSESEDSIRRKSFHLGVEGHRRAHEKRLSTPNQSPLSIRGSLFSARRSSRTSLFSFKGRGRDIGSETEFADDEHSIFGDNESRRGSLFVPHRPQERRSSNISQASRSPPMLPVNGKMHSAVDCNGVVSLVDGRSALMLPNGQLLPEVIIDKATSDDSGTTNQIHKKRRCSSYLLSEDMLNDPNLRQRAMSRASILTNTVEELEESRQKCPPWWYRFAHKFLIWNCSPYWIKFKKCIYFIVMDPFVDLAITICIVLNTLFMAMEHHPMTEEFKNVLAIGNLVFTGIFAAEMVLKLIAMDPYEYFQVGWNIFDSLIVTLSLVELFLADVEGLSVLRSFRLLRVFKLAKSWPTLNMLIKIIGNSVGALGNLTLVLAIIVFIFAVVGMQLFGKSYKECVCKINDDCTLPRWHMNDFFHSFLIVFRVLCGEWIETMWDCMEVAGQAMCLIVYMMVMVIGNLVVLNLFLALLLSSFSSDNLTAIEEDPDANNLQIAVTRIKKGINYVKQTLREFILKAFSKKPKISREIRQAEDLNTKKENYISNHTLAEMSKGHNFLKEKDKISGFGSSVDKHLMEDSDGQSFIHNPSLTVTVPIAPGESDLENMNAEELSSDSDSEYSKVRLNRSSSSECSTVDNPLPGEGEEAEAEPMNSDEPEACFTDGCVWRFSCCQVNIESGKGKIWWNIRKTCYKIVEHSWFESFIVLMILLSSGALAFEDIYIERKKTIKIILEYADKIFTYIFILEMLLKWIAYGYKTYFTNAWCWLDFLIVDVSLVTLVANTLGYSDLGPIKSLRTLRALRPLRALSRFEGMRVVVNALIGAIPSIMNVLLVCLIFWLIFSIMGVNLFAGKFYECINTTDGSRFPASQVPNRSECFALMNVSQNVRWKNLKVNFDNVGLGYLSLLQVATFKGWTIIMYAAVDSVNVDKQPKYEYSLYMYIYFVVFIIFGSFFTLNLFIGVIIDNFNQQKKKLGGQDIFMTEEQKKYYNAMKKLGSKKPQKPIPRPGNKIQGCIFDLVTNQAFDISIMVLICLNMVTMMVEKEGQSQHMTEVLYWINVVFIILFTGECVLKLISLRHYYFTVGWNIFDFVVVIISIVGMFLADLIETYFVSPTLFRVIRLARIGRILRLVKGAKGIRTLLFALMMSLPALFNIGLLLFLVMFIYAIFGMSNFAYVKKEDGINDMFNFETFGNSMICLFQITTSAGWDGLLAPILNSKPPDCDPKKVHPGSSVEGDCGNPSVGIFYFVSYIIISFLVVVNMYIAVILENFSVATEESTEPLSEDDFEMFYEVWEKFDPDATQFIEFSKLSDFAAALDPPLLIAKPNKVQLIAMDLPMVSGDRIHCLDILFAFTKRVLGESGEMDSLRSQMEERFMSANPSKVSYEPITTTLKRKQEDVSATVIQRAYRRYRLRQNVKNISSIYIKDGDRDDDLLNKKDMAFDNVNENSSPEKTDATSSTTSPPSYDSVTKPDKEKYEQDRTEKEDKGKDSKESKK
- Assay info: E-VIPR optical membrane potential assay with electrical stimulation
- Assay type: cell-based
- Run parameters: active against one or more sodium channels; assay and NaV subtype not specified for Table 3; read-out: IC50 Binned Activity Data

COCC1CN(c2ncccn2)CC2(CCN(C(=O)c3ccc(S(=O)(=O)C(F)F)cc3)CC2)O1 (stereo not shown) [Compound 8]    2000 to 5000 nM
O=C(c1ccc(C2(O)COC2)cc1)N1CCC2(CC1)CN(CC(F)(F)F)CC(c1ccccc1)O2 (stereo not shown) [Compound 151]    > 5000 nM
COCC1CN(c2ncccn2)CC2(CCN(C(=O)c3ccc(CC(C)(C)O)cc3)CC2)O1 (stereo not shown) [Compound 240]    > 5000 nM
COCC1CN(C)CC2(CCN(C(=O)c3ccc(OC(C)C)c(C)c3)CC2)O1 (stereo not shown) [Compound 32]    > 5000 nM
CC(C)Oc1ccc(C(=O)N2CCC3(CC2)CN(CC(F)F)CC(c2ccn(C)n2)O3)cc1F (stereo not shown) [Compound 263]    < 2000 nM
CCOc1cccc(C(=O)N2CCC3(CC2)CN(c2ncccn2)CC(COC)O3)c1 (stereo not shown) [Compound 72]    > 5000 nM

Report IC50 for Cc1cc(C(=O)N2CCC3(CC2)CN(CC(F)(F)F)CC(c2ccccc2)O3)ccc1N1CCOCC1 (stereo not shown) [Compound 78]
< 2000 nM

Given CC(C)(O)c1ccc(C(=O)N2CCC3(CC2)CN(CC(F)F)CC(c2ccc(F)cc2)O3)cc1F (stereo not shown) [Compound 307] , respond with its IC50.
< 2000 nM

====

Known IC50 of a selection of compounds
- Study system: human NaV subtype, like NaV 1.7 (Homo sapiens, UniProt Q15858)
- Assay info: E-VIPR optical membrane potential assay with electrical stimulation
- Assay type: cell-based
- Run parameters: active against one or more sodium channels; assay and NaV subtype not specified for Table 3; read-out: IC50 Binned Activity Data

Below: 3 compounds and their reported IC50.
COCC#Cc1ccc(C(=O)N2CCC3(CC2)CN(CC(F)(F)F)CC(c2ccccc2)O3)cc1F (stereo not shown)    2000 to 5000 nM
CC(C)(O)c1ccc(C(=O)N2CCC3(CC2)CN(CC(F)(F)F)CC(c2ccccc2)O3)cc1 (stereo not shown)    < 2000 nM
Cc1cc(C(=O)N2CCC3(CC2)CN(c2ncccn2)CCO3)ccc1OC(C)C    2000 to 5000 nM

Input CCC#CCN1CC(COC)OC2(CCN(C(=O)c3ccc(OC(C)C)c(C)c3)CC2)C1 (stereo not shown) , output reported IC50.
< 2000 nM

Entry CC(C)(C)Oc1ccc(C(=O)N2CCC3(CC2)CN(CC(F)(F)F)CC(c2ccccc2)O3)nc1 (stereo not shown) needs its IC50 filled in; supply it.
< 2000 nM

====

- Study system: human NaV subtype, like NaV 1.7 (Homo sapiens, UniProt Q15858)
- Assay info: E-VIPR optical membrane potential assay with electrical stimulation
- Type: cell-based
- Run parameters: active against one or more sodium channels; assay and NaV subtype not specified for Table 3; read-out: IC50 Binned Activity Data
pIC50: −log10 of the molar value.
Entries and their measured pIC50 follow.

CC(C)(O)Cc1ccc(C(=O)N2CCC3(CC2)CN(CC(F)(F)F)CC(c2ccccc2)O3)cc1 (stereo not shown)    > 5.70
CCC1CN(c2ncccn2)CC2(CCN(C(=O)c3ccc(C4(O)CCCC4)c(C)c3)CC2)O1 (stereo not shown)    > 5.70
CC(C)Oc1ccc(C(=O)N2CCC3(CC2)CN(CC(F)F)CC(c2ccccn2)O3)cc1F (stereo not shown)    > 5.70
COCC1CN(c2ccc(C(F)(F)F)cc2)CC2(CCN(C(=O)c3ccc(OC(C)C)c(C)c3)CC2)O1 (stereo not shown)    > 5.70
COCC1CN(c2cc(OC)ccn2)CC2(CCN(C(=O)c3ccc(OC(C)C)c(C)c3)CC2)O1 (stereo not shown)    > 5.70
COCC1CN(C2CCOCC2)CC2(CCN(C(=O)c3ccc(OC(C)C)c(C)c3)CC2)O1 (stereo not shown)    5.30 to 5.70
COCC1CN(c2ncccn2)CC2(CCN(C(=O)c3ccc(OC(C)C)c(F)c3)CC2)O1 (stereo not shown)    > 5.70
CC(C)Oc1ccc(C(=O)N2CCC3(CC2)CN(CC(F)(F)F)CC(c2ccccc2)O3)cc1 (stereo not shown)    > 5.70

Supply reported pIC50 belonging to this compound: Cc1cc(C(=O)N2CCC3(CC2)CN(c2ncccn2)CC(CO)O3)ccc1OC(C)C (stereo not shown)
< 5.30

Could you please provide reported pIC50 for CC(C)Oc1ccc(C(=O)N2CCC3(CC2)CN(CC(F)F)CC(c2cc[nH]n2)O3)cc1F (stereo not shown) ? Thanks!
5.30 to 5.70

Specify pIC50 for O=C(c1ccc(C(O)C2CC2)cc1)N1CCC2(CC1)CN(CC(F)(F)F)CC(c1ccccc1)O2 (stereo not shown) and stop.
> 5.70
